Target: N-terminally GST-tagged HCK (75-526) (Homo sapiens (Human), UniProt P08631)
Sequence (P08631 75-526): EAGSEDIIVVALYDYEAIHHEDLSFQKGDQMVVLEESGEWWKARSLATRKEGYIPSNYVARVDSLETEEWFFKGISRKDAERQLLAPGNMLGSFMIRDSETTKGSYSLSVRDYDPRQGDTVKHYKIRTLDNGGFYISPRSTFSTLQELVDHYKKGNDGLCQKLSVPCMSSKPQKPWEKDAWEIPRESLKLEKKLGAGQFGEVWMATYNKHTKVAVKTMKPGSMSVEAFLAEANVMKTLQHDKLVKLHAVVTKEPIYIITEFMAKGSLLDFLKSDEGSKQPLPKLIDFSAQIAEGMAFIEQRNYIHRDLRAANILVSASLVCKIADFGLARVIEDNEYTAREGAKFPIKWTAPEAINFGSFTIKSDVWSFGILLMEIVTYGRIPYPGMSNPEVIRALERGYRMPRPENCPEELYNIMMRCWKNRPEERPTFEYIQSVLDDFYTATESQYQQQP
Assay: HCK Kinase Assay (ProFluor Src-Family Kinase Assay)
Assay type: biochemical
Details: HCK inhibitory activity, 50 μM ATP; read-out: HCK Activity
Collected IC50 values appear next to each entry.

molecule | IC50
Nc1ncnc2c1c(-c1ccc(Oc3ccccc3)cc1)cn2[C@H]1CC[C@@H](N2CCN3CCC[C@H]3C2)CC1 | 50 to 250 nM
CN1CCN([C@H]2CC[C@H](c3cn(-c4ccc(Oc5ccccc5)cc4)c4c(N)ncnc43)CC2)CC1 | < 50 nM
COC(=O)C1CC(N2CCC(n3cc(-c4ccc(Oc5ccccc5)cc4)c4c(N)ncnc43)CC2)CCN1 (centres unmarked) | 50 to 250 nM
Nc1ncnc2c1c(-c1ccc(Oc3ccccc3)cc1)cn2[C@H]1CC[C@H](N2CCCC(N)C2)CC1 (some centres unmarked) | < 50 nM
CP1(=O)CCN([C@H]2CC[C@H](n3cc(-c4ccc(Oc5ccccc5)cc4)c4c(N)ncnc43)CC2)CC1 | 50 to 250 nM
Nc1ncnc2c1c(-c1ccc(Oc3ccccc3)cc1)cn2[C@H]1CC[C@@H](N2C[C@@H](O)[C@@H](O)C2)CC1 | 50 to 250 nM
CN1CCC(N2CCC(n3cc(-c4ccc(NC(=O)Nc5cc(C(C)(C)C)on5)cc4)c4c(N)ncnc43)CC2)CC1 | < 50 nM
C[C@@H]1CN([C@H]2CC[C@@H](n3cc(-c4ccc(Oc5ccccc5)cc4)c4c(N)ncnc43)CC2)CCN1 | < 50 nM

Let us examine a further case.
Which IC50 is listed for C[C@H]1CN([C@H]2CC[C@@H](c3nc(-c4ccc(Oc5ccccc5)cc4F)c4c(N)ncnn43)CC2)CCN1 ?
250 to 10000 nM
